All figures here come from the Kinase Knowledgebase extract (Sharma et al. 2016).

Reported pIC50 for target or system EGFR (human), P00533 [WT], by entry.
pIC50: −log10 of the molar value.
measured parameter: pIC50

compound structure string	observed measurement
C[C@@H](Nc1ncnc2sc3c(c12)CCCC3)c1ccccc1	5.49
c1ccc(CNc2ncnc3sc4c(c23)CCCC4)cc1	5.59
